- Assayed system: STING AQ (His-TVMV-S-hSTING(155-341)-G230A-R293Q) (Homo sapiens, UniProt Q86WV6, G230A/H232R/R293Q)
- Construct: STING AQ: His-TVMV-S-hSTING(155-341)-G230A-R293Q
- Sequence (Q86WV6 with tags, fused parts or gaps G230A/H232R/R293Q): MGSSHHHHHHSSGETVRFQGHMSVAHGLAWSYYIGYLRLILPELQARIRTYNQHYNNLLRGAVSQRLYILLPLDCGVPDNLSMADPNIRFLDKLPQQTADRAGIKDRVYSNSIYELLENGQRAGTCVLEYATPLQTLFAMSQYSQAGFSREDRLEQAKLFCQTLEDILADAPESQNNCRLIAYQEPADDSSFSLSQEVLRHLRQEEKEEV
- Experimental protocol: STING HTRF binding assay (time resolved FRET competition), STING AQ
- Assay context: 20 nM His-tagged STING AQ cytoplasmic domain, 40 nM fluorescein-labeled cGAMP analog probe, one hour; read-out: HTRF Binding Assays IC50 AQ
Listed below: pIC50 values for each entry.
Please note pIC50 is a logarithmic value: minus log10 of concentration in mol/L. Answer with that number alone.

See these solved cases before continuing.
- NC(=O)c1cccc2c1nnn2[C@@H]1O[C@@H]2COP(=O)(O)O[C@H]3[C@@H](F)[C@H](n4cnc5c(N)ncnc54)O[C@@H]3COP(=O)(O)O[C@@H]1[C@@H]2O: 8.52
- Nc1ncnc2c1ncn2[C@@H]1O[C@@H]2COP(=O)(S)O[C@@H]3[C@H](O)[C@@H](COP(=O)(S)O[C@H]2[C@H]1F)O[C@H]3n1nnc2c([N+](=O)[O-])cccc21 (single isomer, unassigned) [Example 7-3]: 8.00
- NC(=O)c1cccc2c1nnn2[C@@H]1O[C@@H]2COP(=O)(S)O[C@H]3[C@@H](F)[C@H](n4cnc5c(N)ncnc54)O[C@@H]3COP(=O)(S)O[C@@H]1[C@@H]2O (single isomer, unassigned) [Example 8-2]: 8.00

Fill in: pIC50 of NC(=O)c1cccc2c1nnn2[C@@H]1O[C@@H]2COP(=O)(S)O[C@H]3[C@@H](F)[C@H](n4cnc5c(N)ncnc54)O[C@@H]3COP(=O)(S)O[C@@H]1[C@@H]2F (single isomer, unassigned) [Example 10-3] is ___
8.30

Proceed to Nc1ncnc2c1ncn2[C@@H]1O[C@@H]2COP(=O)(O)O[C@@H]3[C@H](O)[C@@H](COP(=O)(S)O[C@H]2[C@H]1O)O[C@H]3n1nnc2c([N+](=O)[O-])cccc21 (some centres unmarked)
4.17

Cited source for all entries: patent US10947263B2
